- Measurement target: UniProt:P31645
- Assay explanation: Binding affinity at 5-HT reuptake site labeled with [3H]paroxetine
Measured metric: Ki (nM)

> print(dat)
                              line.notation  measurement.target  measured.metric  unit.annotation  experimental.result
1  Cc1cc2c(OC[C@@H](O)CN3CC[C@@H](c4ccc5scc(C)c5c4)C[C@@H]3C)cccc2[nH]1      UniProt:P31645               Ki               nM                 0.54
2  COc1cccc2sc([C@@H]3CCN(C[C@H](O)COc4cccc5[nH]c(C)cc45)[C@@H](C)C3)cc12      UniProt:P31645               Ki               nM                 0.86
3  COc1cccc2ccc([C@@H]3CCN(C[C@H](O)COc4cccc5[nH]c(C)cc45)[C@@H](C)C3)cc12      UniProt:P31645               Ki               nM                 0.34
4  Cc1cc2c(OC[C@@H](O)CN3CC[C@@H](c4cccc5occc45)C[C@@H]3C)cccc2[nH]1      UniProt:P31645               Ki               nM                 7.18
5  Cc1cc2c(OC[C@H](O)CN3CC[C@@H](c4ccc5occc5c4)C[C@@H]3C)cccc2[nH]1      UniProt:P31645               Ki               nM                 1.69
6  Cc1cc2c(OC[C@H](O)CN3CC[C@@H](c4ccc5sccc5c4)C[C@@H]3C)cccc2[nH]1      UniProt:P31645               Ki               nM                  0.3

* * *

- Measurement target: 5-hydroxytryptamine receptor 1A (Homo sapiens) (UniProt P08908)
- Sequence (P08908 whole entry): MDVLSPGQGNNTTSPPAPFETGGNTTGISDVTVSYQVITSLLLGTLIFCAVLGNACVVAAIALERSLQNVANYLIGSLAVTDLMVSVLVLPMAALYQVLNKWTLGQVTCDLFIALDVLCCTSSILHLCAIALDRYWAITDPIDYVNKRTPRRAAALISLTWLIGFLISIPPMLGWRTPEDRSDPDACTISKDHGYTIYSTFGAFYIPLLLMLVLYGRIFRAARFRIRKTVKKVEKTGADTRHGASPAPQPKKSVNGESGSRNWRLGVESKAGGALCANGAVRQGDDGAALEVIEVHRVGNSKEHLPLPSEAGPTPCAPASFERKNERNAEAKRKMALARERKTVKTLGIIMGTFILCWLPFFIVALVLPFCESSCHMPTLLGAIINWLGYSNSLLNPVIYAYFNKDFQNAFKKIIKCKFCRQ
- Assay explanation: Evaluated for stimulation at 1 uM concentration expressed as percent of the maximal [35S]GTP-gamma-S, binding induced by 5-hydroxytryptamine
- Assay type: functional
Measured metric: Emax (%)

> print(dat)
                               line.notation                        measurement.target  experimental.result
 1  COc1cccc2sc([C@@H]3CCN(C[C@H](O)COc4cccc5[nH]c(C)cc45)[C@@H](C)C3)cc12  5-hydroxytryptamine receptor 1A (Homo sapiens) (UniProt P08908)                    3
 2  Cc1cc2c(OC[C@@H](O)CN3CC[C@@H](c4cccc5ccsc45)C[C@@H]3C)cccc2[nH]1  5-hydroxytryptamine receptor 1A (Homo sapiens) (UniProt P08908)                    8
 3  Cc1cc2c(OC[C@@H](O)CN3CC[C@@H](c4ccc5ccoc5c4)C[C@@H]3C)cccc2[nH]1  5-hydroxytryptamine receptor 1A (Homo sapiens) (UniProt P08908)                    6
 4  Cc1cc2c(OC[C@H](O)CN3CC[C@@H](c4ccc5sccc5c4)C[C@@H]3C)cccc2[nH]1  5-hydroxytryptamine receptor 1A (Homo sapiens) (UniProt P08908)                   12
 5  Cc1cc2c(OC[C@@H](O)CN3CC[C@@H](c4ccc5c(C)csc5c4)C[C@@H]3C)cccc2[nH]1  5-hydroxytryptamine receptor 1A (Homo sapiens) (UniProt P08908)                    4
 6  Cc1cc2c(OC[C@@H](O)CN3CC[C@@H](c4ccc5scc(C)c5c4)C[C@@H]3C)cccc2[nH]1  5-hydroxytryptamine receptor 1A (Homo sapiens) (UniProt P08908)                    8
 7  Cc1cc2c(OC[C@H](O)CN3CC[C@@H](c4cccc5sccc45)C[C@@H]3C)cccc2[nH]1  5-hydroxytryptamine receptor 1A (Homo sapiens) (UniProt P08908)                   15
 8  Cc1cc2c(OC[C@@H](O)CN3CC[C@@H](c4ccc5ccsc5c4)C[C@@H]3C)cccc2[nH]1  5-hydroxytryptamine receptor 1A (Homo sapiens) (UniProt P08908)                   12
 9  O[C@@H](COc1cccc2[nH]ccc12)CN1CCC(c2cc3ccccc3s2)CC1  5-hydroxytryptamine receptor 1A (Homo sapiens) (UniProt P08908)                   12
10  Cc1cc2c(OC[C@H](O)CN3CC[C@@H](c4ccc5occc5c4)C[C@@H]3C)cccc2[nH]1  5-hydroxytryptamine receptor 1A (Homo sapiens) (UniProt P08908)                    9
11  Cc1cc2c(OC[C@@H](O)CN3CC[C@@H](c4ccc5ccccc5c4)C[C@@H]3C)cccc2[nH]1  5-hydroxytryptamine receptor 1A (Homo sapiens) (UniProt P08908)                    9
12  COc1cccc2ccc([C@@H]3CCN(C[C@H](O)COc4cccc5[nH]c(C)cc45)[C@@H](C)C3)cc12  5-hydroxytryptamine receptor 1A (Homo sapiens) (UniProt P08908)                   11
13  Cc1cc2c(OC[C@@H](O)CN3CC[C@@H](c4cccc5occc45)C[C@@H]3C)cccc2[nH]1  5-hydroxytryptamine receptor 1A (Homo sapiens) (UniProt P08908)                    8

* * *

Overview of recorded log10 Ki for various compounds
- Measurement target: Sodium-dependent serotonin transporter (Homo sapiens)
- Sequence (P31645 whole entry): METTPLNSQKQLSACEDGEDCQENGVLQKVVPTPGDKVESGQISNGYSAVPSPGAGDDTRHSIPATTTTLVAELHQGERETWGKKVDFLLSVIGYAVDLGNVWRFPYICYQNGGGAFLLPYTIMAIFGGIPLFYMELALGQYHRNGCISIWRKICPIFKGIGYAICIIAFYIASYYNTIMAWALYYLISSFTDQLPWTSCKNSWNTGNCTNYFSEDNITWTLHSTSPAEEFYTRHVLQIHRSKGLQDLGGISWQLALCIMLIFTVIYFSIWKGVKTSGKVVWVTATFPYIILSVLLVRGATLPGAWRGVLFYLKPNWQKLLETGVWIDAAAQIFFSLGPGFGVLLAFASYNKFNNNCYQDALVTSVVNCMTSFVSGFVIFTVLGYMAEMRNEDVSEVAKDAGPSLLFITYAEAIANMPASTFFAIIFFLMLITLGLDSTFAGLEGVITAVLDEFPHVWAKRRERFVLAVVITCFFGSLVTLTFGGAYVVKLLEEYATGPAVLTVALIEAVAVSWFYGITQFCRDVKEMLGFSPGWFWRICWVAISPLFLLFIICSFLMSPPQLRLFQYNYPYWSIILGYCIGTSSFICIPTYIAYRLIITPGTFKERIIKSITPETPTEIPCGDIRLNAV
- Assay explanation: Binding affinity at 5-HT reuptake site labeled with [3H]paroxetine
Measured metric: log10 Ki (log10 of the value in nM)

> print(dat)
                              line.notation  experimental.result
1  Cc1cc2c(OC[C@@H](O)CN3CC[C@@H](c4ccc5ccccc5c4)C[C@@H]3C)cccc2[nH]1                -0.40
2  Cc1cc2c(OC[C@@H](O)CN3CC[C@@H](c4ccc5ccsc5c4)C[C@@H]3C)cccc2[nH]1                -0.12
3  O[C@@H](COc1cccc2[nH]ccc12)CN1CCC(c2cc3ccccc3s2)CC1                 1.22
4  Cc1cc2c(OC[C@@H](O)CN3CC[C@@H](c4ccc5c(C)csc5c4)C[C@@H]3C)cccc2[nH]1                -0.24
5  Cc1cc2c(OC[C@@H](O)CN3CC[C@@H](c4cccc5ccsc45)C[C@@H]3C)cccc2[nH]1                 0.97
6  Cc1cc2c(OC[C@@H](O)CN3CC[C@@H](c4cc5ccccc5s4)C[C@@H]3C)cccc2[nH]1                -0.28
7  Cc1cc2c(OC[C@@H](O)CN3CC[C@@H](c4ccc5ccoc5c4)C[C@@H]3C)cccc2[nH]1                 0.58
8  Cc1cc2c(OC[C@H](O)CN3CC[C@@H](c4cccc5sccc45)C[C@@H]3C)cccc2[nH]1                 0.64

* * *

Overview of recorded Ki for various compounds
- Measurement target: UniProtKB P08908
Measured metric: Ki

> print(dat)
                              line.notation  measurement.target  experimental.result
1  Cc1cc2c(OC[C@@H](O)CN3CC[C@@H](c4ccc5c(C)csc5c4)C[C@@H]3C)cccc2[nH]1    UniProtKB P08908              7.82 nM
2  Cc1cc2c(OC[C@H](O)CN3CC[C@@H](c4ccc5occc5c4)C[C@@H]3C)cccc2[nH]1    UniProtKB P08908              1.39 nM
3  O[C@@H](COc1cccc2[nH]ccc12)CN1CCC(c2cc3ccccc3s2)CC1    UniProtKB P08908               3.7 nM
4  Cc1cc2c(OC[C@@H](O)CN3CC[C@@H](c4ccc5scc(C)c5c4)C[C@@H]3C)cccc2[nH]1    UniProtKB P08908              3.12 nM
5  COc1cccc2ccc([C@@H]3CCN(C[C@H](O)COc4cccc5[nH]c(C)cc45)[C@@H](C)C3)cc12    UniProtKB P08908              10.9 nM
